Recorded values, source patent US20190064177A1.

- Tested on: diaphorase
- test-protocol: fluorescently labeled diaphorase binding to peptide array with or without excess FAD
- condition-label: 1 micromolar labeled diaphorase, no FAD; 65535 is detector saturation
Rule: YES for 1 micro no FAD (array fluorescence of bound diaphorase) not less than 4000, NO for anything less.

macromolecule-sequence | assigned-class
RSHPKHNVGSG [array peptide with C-terminal GSG linker] | NO
YVWGLELSGGSG [array peptide with C-terminal GSG linker] | NO
VVQALFDGSG [array peptide with C-terminal GSG linker] | NO
LKQLFLEGGSG [array peptide with C-terminal GSG linker] | NO
VFGVLSQVARDGSG [array peptide with C-terminal GSG linker] | YES
RLQYLFKSDGSG [array peptide with C-terminal GSG linker] | YES
RYAYFQHLGGSG [array peptide with C-terminal GSG linker] | YES
YRNAAWFSGGSG [array peptide with C-terminal GSG linker] | YES
RFKYPLDGGSG [array peptide with C-terminal GSG linker] | YES
